Data provenance is patent US20100286145A1.

List of pKi values.
# test-system: memapsin 2 (Homo sapiens)
# assay-protocol: Inhibition of memapsin 2 beta-secretase activity (fluorogenic substrate FS-2)
# Assay type: biochemical
# condition-set: memapsin 2, pH 4, 37° C., 20 minutes pre-incubation; read-out: M2Ki
pKi: −log10 of the molar value.

Example entries begin here.
Cc1csc(CN(C)C(=O)c2cccc(C(=O)N[C@@H](Cc3ccccc3)[C@H](O)CN(Cc3cnn(C)c3)Cc3cnn(C)c3)c2)n1 :: < 6.30
COc1cccc(CNC[C@@H](O)[C@H](Cc2ccccc2)NC(=O)c2cc(O)cc(C(=O)N(C)Cc3nc(C)cs3)c2)c1 :: > 6.52
Cc1csc(CNC(=O)c2cccc(C(=O)N[C@@H](Cc3ccccc3)[C@H](O)CNCc3cc(C(C)C)c(C)nc3C)c2)n1 :: 6.30 to 6.52
COc1cccc(CNC[C@@H](O)[C@H](Cc2ccccc2)NC(=O)c2cc(NO)cc(C(=O)N[C@H](C)c3ccccc3)c2)c1 :: < 6.30
Cc1csc(CN(C)C(=O)c2cccc(C(=O)N[C@@H](Cc3ccccc3)[C@H](O)CNCc3cc(-c4ccccc4)on3)c2)n1 :: > 6.52

Now look at this one.
Value of pKi reported for the compound Cc1csc(CN(C)C(=O)c2cccc(C(=O)N[C@@H](Cc3ccccc3)[C@H](O)CNCc3cccc(C#N)c3)c2)n1 is > 6.52

====

# test-system: memapsin 1 (Homo sapiens)
# Sequence (Q9Y5Z0 63-518): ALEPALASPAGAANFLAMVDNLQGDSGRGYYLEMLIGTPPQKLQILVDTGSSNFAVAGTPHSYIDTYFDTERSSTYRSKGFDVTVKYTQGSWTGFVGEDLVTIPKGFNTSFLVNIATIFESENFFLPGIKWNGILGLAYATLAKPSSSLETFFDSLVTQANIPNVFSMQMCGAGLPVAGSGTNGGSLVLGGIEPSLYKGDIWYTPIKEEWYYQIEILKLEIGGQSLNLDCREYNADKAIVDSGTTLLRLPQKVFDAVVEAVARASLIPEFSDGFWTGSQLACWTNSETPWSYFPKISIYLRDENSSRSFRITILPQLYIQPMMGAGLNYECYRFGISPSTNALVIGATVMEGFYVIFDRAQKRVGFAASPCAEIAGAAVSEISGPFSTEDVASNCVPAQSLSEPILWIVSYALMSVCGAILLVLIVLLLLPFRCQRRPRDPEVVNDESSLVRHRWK
# assay-protocol: Inhibition of memapsin 1 beta-secretase activity (substrate peptide ELDLAVEFWHDR, MALDI-TOF)
# Assay type: biochemical
# condition-set: read-out: M1Ki
pKi: −log10 of the molar value.
quantity-name: pKi

Example entries begin here.
Cc1csc(CN(C)C(=O)c2cc(C(=O)N[C@@H](Cc3ccccc3)[C@H](O)CNCc3cncc(C(C)(C)F)c3)cc(N(C)C)c2)n1 :: > 6.52
COC(=O)c1cc(C(=O)N[C@@H](Cc2ccccc2)[C@H](O)CNCc2cccc(OC)c2)cc(C(=O)N(C)Cc2nc(C)cs2)c1 :: < 6.30
C[C@@H](NC(=O)c1cc(C(=O)N[C@@H](Cc2ccccc2)[C@H](O)CNCc2cncc(C(F)(F)F)c2)cc(N(C)S(C)(=O)=O)c1)c1ccccc1 :: > 6.52
COc1cccc(CNC[C@@H](O)[C@H](Cc2ccccc2)NC(=O)c2cc(C(=O)N(C)Cc3nc(C)cs3)cc(C3=NCCO3)c2)c1 :: < 6.30
COc1cc(CNC[C@@H](O)[C@H](Cc2ccccc2)NC(=O)c2cccc(C(=O)N(C)Cc3nc(C)cs3)c2)cc(OC)c1 :: 6.30 to 6.52

Now look at this one.
Value of pKi reported for the molecule Cc1cc(C(=O)N[C@@H](Cc2ccccc2)[C@H](O)CNCc2cncc(C(C)C)c2)cc(C(=O)N(Cc2nc(C)cs2)C2CC2)c1 is > 6.52

====

# assay-protocol: Plasma pharmacokinetic analysis in rats, i.v. bolus
# Assay type: in vivo
# condition-set: male, Sprague-Dawley, rat, in vivo, iv, 10 mg/kg
# Text: Quantitative analysis was used to determine the concentration of a test inhibitor, N1-((2S,3R)-4-((5-(2-fluoropropan-2-yl)pyridin-3-yl)methylamino)-3-hydroxy-1-phenylbutan-2-yl)-N3-methyl-N3-((4-methylthiazol-2-yl)methyl)isophthalamide, in biological tissues. The test inhibitor was extracted from a variety of biological samples followed by its selective identification and quantification from a standard curve prepared in the same extracted biological matrix. […]
quantity-name: concentration at 6 h (ng/mL)
Number only, in ng/mL; omit the unit.

Value of concentration at 6 h reported for the compound Cc1csc(CN(C)C(=O)c2cccc(C(=O)N[C@@H](Cc3ccccc3)[C@H](O)CNCc3cncc(C(C)(C)F)c3)c2)n1 is 5.7

====

# test-system: UniProt P56817
# assay-protocol: Inhibition of memapsin 2 beta-secretase activity (fluorogenic substrate FS-2)
# Assay type: biochemical
# condition-set: memapsin 2, pH 4, 37° C., fluorogenic substrate FS-2; read-out: M2Ki
pKi: −log10 of the molar value.
List of pKi values.

Value of pKi reported for the compound Cc1csc(CN(C)C(=O)c2cccc(C(=O)N[C@@H](Cc3ccccc3)[C@H](O)CNCc3cc(C(F)(F)F)ccn3)c2)n1 is > 6.52

====

# test-system: memapsin 2 (Homo sapiens)
# assay-protocol: Inhibition of memapsin 2 beta-secretase activity (fluorogenic substrate FS-2)
# Format: biochemical
# condition-set: memapsin 2, pH 4, 37° C., fluorogenic substrate FS-2; read-out: M2Ki
pKi: −log10 of the molar value.
List of pKi values.

Cc1csc(CN(C)C(=O)c2cc(C(=O)N[C@@H](Cc3ccccc3)[C@H](O)CNCc3cccc(C(C)(C)C)c3)cc(N(C)C)c2)n1 [Compound 268] :: > 6.52
Cc1csc(CN(C)C(=O)c2cc(C(=O)N[C@@H](Cc3ccccc3)[C@H](O)CNCc3cncc(C(C)C)c3)cc(-c3cccc(Cl)c3)c2)n1 [Compound 272] :: > 6.52
COc1cccc(CNC[C@@H](O)[C@H](Cc2ccccc2)NC(=O)c2cccc(C(=O)N(C)Cc3nc(C)cs3)c2O)c1 [Compound 296] :: < 6.30
Cc1csc(CN(C)C(=O)c2cc(C(=O)N[C@@H](Cc3ccccc3)[C@H](O)CNCc3cncc(C(C)C)c3)cc(-c3nccn3C)c2)n1 [Compound 271] :: > 6.52
Cc1csc(CN(C)C(=O)c2cc(C(=O)N[C@@H](Cc3ccccc3)[C@H](O)CNCc3cncc(C(C)C)c3)cc(C(C)C)c2)n1 [Compound 274] :: > 6.52

Now look at this one.
Result for Cc1csc(CN(C)C(=O)c2ccc(C)c(C(=O)N[C@@H](Cc3ccccc3)[C@H](O)CNCc3cncc(C(C)C)c3)c2)n1 [Compound 249] , tested on memapsin 2 (Homo sapiens), pKi: < 6.30

====

# assay-protocol: Plasma pharmacokinetic analysis in rats, i.v. bolus
# Type: in vivo
# condition-set: male, Sprague-Dawley, rat, in vivo, iv, 10 mg/kg
quantity-name: concentration at 2 h (ng/mL)
Number only, in ng/mL; omit the unit.

Value of concentration at 2 h reported for the molecule Cc1csc(CN(C)C(=O)c2cccc(C(=O)N[C@@H](Cc3ccccc3)[C@H](O)CNCc3cncc(C(C)(C)F)c3)c2)n1 [test inhibitor] is 130

====

# test-system: memapsin 2 (Homo sapiens, UniProt P56817)
# Sequence (P56817 46-501): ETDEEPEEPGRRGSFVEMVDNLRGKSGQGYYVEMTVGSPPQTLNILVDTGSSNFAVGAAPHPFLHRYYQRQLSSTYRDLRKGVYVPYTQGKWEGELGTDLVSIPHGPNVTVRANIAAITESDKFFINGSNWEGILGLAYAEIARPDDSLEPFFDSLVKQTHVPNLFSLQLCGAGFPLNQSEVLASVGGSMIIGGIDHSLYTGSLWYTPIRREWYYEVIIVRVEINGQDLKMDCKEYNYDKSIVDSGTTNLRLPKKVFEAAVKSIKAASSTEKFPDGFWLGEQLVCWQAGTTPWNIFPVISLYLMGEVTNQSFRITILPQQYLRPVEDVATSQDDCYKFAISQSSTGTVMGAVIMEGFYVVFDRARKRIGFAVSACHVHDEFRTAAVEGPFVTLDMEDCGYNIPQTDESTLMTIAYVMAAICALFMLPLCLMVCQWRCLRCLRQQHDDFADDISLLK
# assay-protocol: Inhibition of memapsin 2 beta-secretase activity (fluorogenic substrate FS-2)
# Format: biochemical
# condition-set: memapsin 2, pH 4, 37° C., fluorogenic substrate FS-2; read-out: M2Ki
pKi: −log10 of the molar value.
quantity-name: pKi

Cc1csc(CN(C)C(=O)c2cccc(C(=O)N[C@@H](Cc3ccccc3)[C@H](O)CNCc3cccc(-c4ccccc4)c3)c2)n1 [Compound 267] :: > 6.52
Cc1csc(CN(C)C(=O)c2cccc(C(=O)N[C@@H](Cc3ccccc3)[C@H](O)CNCc3cncc(Cl)c3)c2)n1 [Compound 216] :: > 6.52
COc1cccc([C@H](C)NC[C@@H](O)[C@H](Cc2ccccc2)NC(=O)c2cc(C(=O)N(C)Cc3nc(C)cs3)cc(N(C)C)c2)c1 [Compound 260] :: 6.30 to 6.52
Cc1csc(CN(C)C(=O)c2cc(C(=O)N[C@@H](Cc3ccccc3)[C@H](O)CNCc3cncc(C(C)(C)C)c3)cc(N(C)C)c2)n1 [Compound 226] :: > 6.52

Value of pKi reported for the compound COc1cccc(CNC[C@@H](O)[C@H](Cc2ccccc2)NC(=O)c2cc(C(=O)N[C@H](C)c3ccccc3)cc(-c3ncco3)c2)c1 [Compound 213] is 6.30 to 6.52

Value of pKi reported for the compound Cc1csc(CN(C)C(=O)c2cc(C(=O)N[C@@H](Cc3ccccc3)[C@H](O)CNCc3cccc(C(F)(F)F)c3)cc(-c3ccco3)c2)n1 [Compound 305] is > 6.52

====

List of Ki values.
# test-system: memapsin 2 (Homo sapiens)
# assay-protocol: Inhibition of memapsin 2 beta-secretase activity (fluorogenic substrate FS-2)
# Format: biochemical
# condition-set: memapsin 2, pH 4, 37° C., 20 minutes pre-incubation; read-out: M2Ki

Example entries begin here.
Cc1csc(CN(C)C(=O)c2cccc(C(=O)N[C@@H](Cc3ccccc3)[C@H](O)CNCc3cc(C(C)(C)C)ccc3O)c2)n1 [Compound 111] :: < 300 nM
C[C@@H](NC(=O)c1cc(C(=O)N[C@@H](Cc2ccccc2)[C@H](O)CNCc2cccc(C(C)(F)F)c2)cc(N(C)S(C)(=O)=O)c1)c1ccccc1 [Compound 144] :: < 300 nM
Cc1csc(CN(C)C(=O)c2cccc(C(=O)N[C@@H](Cc3ccccc3)[C@H](O)CNCc3ccc(C(F)(F)F)nc3)c2)n1 [Compound 7] :: > 501 nM
COc1cccc(CNC[C@@H](O)[C@H](Cc2ccccc2)NC(=O)c2cc(C(=O)N(C)Cc3nc(C)cs3)cc(-c3ccccc3)c2)c1 [Compound 78] :: < 300 nM
COc1cc(C(=O)N[C@@H](Cc2ccccc2)[C@H](O)CNCc2cncc(C(C)C)c2)cc(C(=O)N(C)Cc2nc(C)cs2)c1 [Compound 40] :: < 300 nM

Result for COc1cccc(CNC[C@@H](O)[C@H](Cc2ccccc2)NC(=O)c2cc(C(=O)N(C)Cc3nc(C)cs3)cc(-c3ncco3)c2)c1 [Compound 85] , tested on memapsin 2 (Homo sapiens), Ki: < 300 nM
